# System: FADD−/− Jurkat cells
# measurement_protocol: Necroptosis inhibition assay, TNF-α-induced necroptosis (CellTiter-Glo 2.0)
# Format: cell-based, human
# setup_conditions: compound 1 μM; TNF-α 15 ng/mL
Decision: Necroptosis inhibition assay (Rescue %) 1 μM >= 30% yields true, all other cases yield false.

molecule	assigned_label
Nc1ncc(-c2cnn(C3CCN(C(=O)CC4CCN(C(=O)CNc5ccc6c(c5)C(=O)N(C5CCC(=O)NC5=O)C6=O)CC4)CC3)c2)nc1C(=O)O[C@@H](C(=O)Nc1ccc(F)cc1)c1ccccc1 (some centres unmarked)	true
Nc1ncc(-c2cnn(C3CCN(CCOCCOCCNc4ccc5c(c4)C(=O)N(C4CCC(=O)NC4=O)C5=O)CC3)c2)nc1C(=O)N[C@@H](C(=O)Nc1ccc(F)cc1)c1ccccc1 (some centres unmarked)	false
Nc1ncc(-c2cnn(C3CCN(CCCCCCCCCCNC(=O)CNc4cccc5c4C(=O)N(C4CCC(=O)NC4=O)C5=O)CC3)c2)nc1C(=O)O[C@@H](C(=O)Nc1ccc(F)cc1)c1ccccc1 (some centres unmarked)	false
Nc1ncc(-c2cnn(C3CCN(CCCN4CCN(C(=O)CC5CCN(c6cccc7c6C(=O)N(C6CCC(=O)NC6=O)C7=O)CC5)CC4)CC3)c2)nc1C(=O)O[C@@H](C(=O)Nc1ccc(F)cc1)c1ccccc1 (some centres unmarked)	true

Next:
Input line: Evaluate Nc1ncc(-c2cnn(C3CCN(CCOCCNC(=O)C4CCN(c5cccc6c5C(=O)N(C5CCC(=O)NC5=O)C6=O)CC4)CC3)c2)nc1C(=O)O[C@@H](C(=O)Nc1ccc(F)cc1)c1ccccc1 (some centres unmarked) : Necroptosis inhibition assay (Rescue %) 1 μM at minimum 30%?
Output line: false

###

# Tested on: FADD−/− Jurkat cells
# measurement_protocol: Necroptosis inhibition assay, TNF-α-induced necroptosis (CellTiter-Glo 2.0)
# Assay type: cell-based, human
# setup_conditions: compound 10 μM; TNF-α 15 ng/mL, FADD−/− Jurkat cells
test_readout: Necroptosis inhibition assay (Rescue %) 10 μM
Please state the value followed by its unit.

Example entries and their recorded answers appear below.
molecule	experimental_result
COc1ccc(C(=O)N2CCC(OCCN3CCC(CN4CCC(n5cc(-c6cnc(N)c(C(=O)O[C@@H](C(=O)Nc7ccc(F)cc7)c7ccccc7)n6)cn5)CC4)CC3)CC2)cc1N1CCC(=O)NC1=O	48.09%
Nc1ncc(-c2cnn(C3CCN(C(=O)CCC4CCN(C(=O)COc5cccc6c5C(=O)N(C5CCC(=O)NC5=O)C6=O)CC4)CC3)c2)nc1C(=O)O[C@@H](C(=O)Nc1ccc(F)cc1)c1ccccc1 (stereo partly drawn)	40.81%

Now for a further molecule.
Input line: State its Necroptosis inhibition assay (Rescue %) 10 μM for this molecule: Nc1ncc(-c2cnn(C3CCN(C(=O)CCC4CCN(C(=O)C5CCN(c6ccc7c(c6)C(=O)N(C6CCC(=O)NC6=O)C7=O)CC5)CC4)CC3)c2)nc1C(=O)O[C@@H](C(=O)Nc1ccc(F)cc1)c1ccccc1 (stereo partly drawn)
Output line: 17.31%

###

# Test system: FADD−/− Jurkat cells
# measurement_protocol: Necroptosis inhibition assay, TNF-α-induced necroptosis (CellTiter-Glo 2.0)
# Assay type: cell-based, human
# setup_conditions: compound 1 μM; TNF-α 15 ng/mL
Give Necroptosis inhibition assay (Rescue %) 1 μM for every item shown.

Example entries and their recorded answers appear below.
compound	experimental_result
Nc1ncc(-c2ccc(N3CCN(CCOCCOCCNC(=O)C4CCN(c5cccc6c5C(=O)N(C5CCC(=O)NC5=O)C6=O)CC4)CC3)nc2)nc1C(=O)OC(C(=O)Nc1ccc(F)cc1)c1ccccc1 (stereo not drawn)	24.61%
Nc1ncc(-c2cnn(C3CCN(CC4CCN(CC(=O)NCCNc5cccc6c5C(=O)N(C5CCC(=O)NC5=O)C6=O)CC4)CC3)c2)nc1C(=O)OC(C(=O)Nc1ccc(F)cc1)c1ccccc1 (stereo not drawn)	35.55%

Now for a further compound.
Input line: State its Necroptosis inhibition assay (Rescue %) 1 μM for this compound: Nc1ncc(-c2cnn(C3CCN(C[C@H]4CC[C@H](CNc5cccc6c5C(=O)N(C5CCC(=O)NC5=O)C6=O)CC4)CC3)c2)nc1C(=O)O[C@@H](C(=O)Nc1ccc(F)cc1)c1ccccc1 (stereo partly drawn)
Output line: 0.74%

###

# System: FADD−/− Jurkat cells
# measurement_protocol: Necroptosis inhibition assay, TNF-α-induced necroptosis (CellTiter-Glo 2.0)
# Format: cell-based, human
# setup_conditions: compound 1 μM; TNF-α 15 ng/mL
Give Necroptosis inhibition assay (Rescue %) 1 μM for every item shown.
One number for each entry, in %.

Give one value of Necroptosis inhibition assay (Rescue %) 1 μM per listed compound.
1. Nc1ncc(-c2cnn(C3CCN(CCCCCCCCCCNC(=O)C4CN(c5ccc6nnn(C7CCC(=O)NC7=O)c(=O)c6c5)C4)CC3)c2)nc1C(=O)O[C@@H](C(=O)Nc1ccc(F)cc1)c1ccccc1 (stereo partly shown)
2. Nc1ncc(-c2cnn(C3CCN(CC4CCN(C(=O)C5CN(c6ccc7nnn(C8CCC(=O)NC8=O)c(=O)c7c6)C5)CC4)CC3)c2)nc1C(=O)O[C@@H](C(=O)Nc1ccc(F)cc1)c1ccccc1 (stereo partly shown)
3. Nc1ncc(-c2cnn(C3CCN(CCOCCOCCNC(=O)C4CCN(c5ccc6c(c5)C(=O)N(C5CCC(=O)NC5=O)C6=O)CC4)CC3)c2)nc1C(=O)O[C@@H](C(=O)Nc1ccc(F)cc1)c1ccccc1 (stereo partly shown)
4. Nc1ncc(-c2cnn(C3CCN(CCC4CCN(C(=O)C5CCN(c6cccc7nnn(C8CCC(=O)NC8=O)c(=O)c67)CC5)CC4)CC3)c2)nc1C(=O)OC(C(=O)Nc1ccc(F)cc1)c1ccccc1 (stereo not shown)
5. Nc1ncc(-c2cnn(C3CCN(CC4CN(C(=O)C5CCN(c6ccc7c(c6)C(=O)N(C6CCC(=O)NC6=O)C7=O)CC5)CCO4)CC3)c2)nc1C(=O)OC(C(=O)Nc1ccc(F)cc1)c1ccccc1 (stereo not shown)
6. Nc1ncc(-c2cnn(C3CCN(C(=O)C4CCN(C(=O)CCc5cccc6c5C(=O)N(C5CCC(=O)NC5=O)C6=O)CC4)CC3)c2)nc1C(=O)O[C@@H](C(=O)Nc1ccc(F)cc1)c1ccccc1 (stereo partly shown)
7. Nc1ncc(-c2cnn(C3CCN(CC4CCN(C(=O)C5CCN(c6ccc7nnn(C8CCC(=O)NC8=O)c(=O)c7c6)CC5)CC4)CC3)c2)nc1C(=O)O[C@@H](C(=O)Nc1ccc(F)cc1)c1ccccc1 (stereo partly shown)

Output line:
[24.45, 44.08, 45.17, 67.46, 66.84, 38.37, 85.85]

Give one value of Necroptosis inhibition assay (Rescue %) 1 μM per listed compound.
1. Nc1ncc(-c2cnn(C3CCN(CC4CCN(C(=O)CNc5ccc6nnn(C7CCC(=O)NC7=O)c(=O)c6c5)CC4)CC3)c2)nc1C(=O)O[C@@H](C(=O)Nc1ccc(F)cc1)c1ccccc1 (stereo partly shown)
2. Nc1ncc(-c2cnn(C3CCN(C(=O)COCCOCCNc4ccc5c(c4)C(=O)N(C4CCC(=O)NC4=O)C5=O)CC3)c2)nc1C(=O)O[C@@H](C(=O)Nc1ccc(F)cc1)c1ccccc1 (stereo partly shown)
3. Nc1ncc(-c2cnn(C3CCN(CCCN4CCN(C(=O)COc5ccc6c(c5)C(=O)N(C5CCC(=O)NC5=O)C6=O)CC4)CC3)c2)nc1C(=O)OC(C(=O)Nc1ccc(F)cc1)c1ccccc1 (stereo not shown)

Output line:
[63.2, 27.07, 92.11]

###

# experimental_target: MLKL (Homo sapiens, UniProt Q8NB16)
# Sequence (Q8NB16 1-471): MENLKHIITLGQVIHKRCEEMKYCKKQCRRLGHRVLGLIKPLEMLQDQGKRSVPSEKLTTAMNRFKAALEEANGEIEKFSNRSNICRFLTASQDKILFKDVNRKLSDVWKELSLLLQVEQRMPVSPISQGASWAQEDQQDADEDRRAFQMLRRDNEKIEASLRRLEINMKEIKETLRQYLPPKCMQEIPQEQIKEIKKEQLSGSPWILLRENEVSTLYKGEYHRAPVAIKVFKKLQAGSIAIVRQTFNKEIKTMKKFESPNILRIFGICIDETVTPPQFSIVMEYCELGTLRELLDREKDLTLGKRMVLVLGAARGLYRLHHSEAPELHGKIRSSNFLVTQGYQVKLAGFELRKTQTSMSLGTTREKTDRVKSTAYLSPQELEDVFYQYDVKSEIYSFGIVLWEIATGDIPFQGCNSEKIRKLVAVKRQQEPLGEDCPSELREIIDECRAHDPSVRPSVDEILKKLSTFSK
# measurement_protocol: MLKL degradation assay in HepG2 cell line (western blot)
# Type: cell-based
# Design: endogenous in cells; host or cells: HepG2 or HaCaT
# setup_conditions: compound 10 μM; cell line not given
Friendly reminder: Degradation assay (Degradation %) 10 μM below 80% is Satisfied, at or above is Not satisfied.

Would you please look over these solved cases?
compound	assigned_label
Nc1ncc(-c2cnn(C3CCN(C(=O)C4CCN(C(=O)COc5ccc6c(c5)C(=O)N(C5CCC(=O)NC5=O)C6=O)CC4)CC3)c2)nc1C(=O)OC(C(=O)Nc1ccc(F)cc1)c1ccccc1 (stereo not shown) [TDH-278]	Satisfied
Nc1ncc(-c2cnn(C3CCN(CC4CCN(C(=O)C5CN(c6ccc7nnn(C8CCC(=O)NC8=O)c(=O)c7c6)C5)CC4)CC3)c2)nc1C(=O)O[C@@H](C(=O)Nc1ccc(F)cc1)c1ccccc1 (stereo partly shown) [TDH-170]	Satisfied
Nc1ncc(-c2cnn(C3CCN(CCC4CCN(C(=O)CNc5ccc6c(c5)C(=O)N(C5CCC(=O)NC5=O)C6=O)CC4)CC3)c2)cc1C(=O)OC(C(=O)Nc1ccc(F)cc1)c1ccccc1 (stereo not shown) [TDH-302]	Not satisfied
Nc1ncc(-c2cnn(C3CCN(CCC4CCN(C(=O)CNc5ccc6c(c5)C(=O)N(C5CCC(=O)NC5=O)C6=O)CC4)CC3)c2)nc1C(=O)O[C@@H](C(=O)Nc1ccc(F)cc1)c1ccccc1 (stereo partly shown) [TDH-199]	Satisfied
Nc1ncc(-c2cnn(C3CCN(C(=O)C4CCN(C(=O)CNc5ccc6nnn(C7CCC(=O)NC7=O)c(=O)c6c5)CC4)CC3)c2)nc1C(=O)O[C@@H](C(=O)Nc1ccc(F)cc1)c1ccccc1 (stereo partly shown) [TDH-408]	Satisfied
Nc1ncc(-c2cnn(C3CCN(CCCC4CCN(C(=O)CCc5ccc6c(c5)C(=O)N(C5CCC(=O)NC5=O)C6=O)CC4)CC3)c2)nc1C(=O)O[C@@H](C(=O)Nc1ccc(F)cc1)c1ccccc1 (stereo partly shown) [TDH-484]	Not satisfied
COc1ccc(C(=O)N2CCC(CN3CCC(n4cc(-c5cnc(N)c(C(=O)O[C@@H](C(=O)Nc6ccc(F)cc6)c6ccccc6)n5)cn4)CC3)CC2)cc1N1CCC(=O)NC1=O [TDH-445]	Satisfied

Next:
Input line: Record Nc1ncc(-c2cnn(C3CCN(C(=O)CCC4CCN(C(=O)CNc5ccc6c(c5)C(=O)N(C5CCC(=O)NC5=O)C6=O)CC4)CC3)c2)nc1C(=O)O[C@@H](C(=O)Nc1ccc(F)cc1)c1ccccc1 (stereo partly shown) [TDH-422] : is its Degradation assay (Degradation %) 10 μM strictly below 80%?
Output line: Not satisfied
